# Method summary: qHTS Assay for Lipid Storage Modulators in Drosophila S3 Cells
# Conditions: BODIPY lipid droplet fluorescence, 18-24 h, cells fed with added oleic acid; series mostly up to 46.1 µM
Among all 320,000 compounds or so, about 2,100 (0.66%) were called active. About 53% were inconclusive and are not listed. The call rests on the fitted dose curve; in most records, active means well fitted inhibition curve with a large enough effect in the signal ratio, with a control signal flat (not every such curve was filed as active); inconclusive means small, poorly fitted or top-dose-only effect, or effect the other way, or a change in a side signal; inactive means flat fitted curve, though single readings scatter; the % refers to the signal ratio. This excerpt belongs to a sample that is enriched for actives.
Your reply should match one of these outcome classes. T = active, F = inactive

Answered examples (2):
Query: Status in this test for `CC(C)(C)N(NC(=O)c1ccccc1)C(=O)c1ccccc1` ?
Reply: F

Query: Status in this test for `CN(C(=O)CNC(=O)OCc1ccccc1)c1ccc(Br)cc1C(=O)c1ccccc1Cl` ?
Reply: F

---
Query: Status in this test for `CCCCOC(=O)C1=C(N)OC2=C(C(=O)CCC2)[C@]12C(=O)N(C)c1ccccc12` ?
Reply: T

Query: Status in this test for `CN1CCc2c([nH]c3ccccc23)C1` ?
Reply: F

Query: Status in this test for `CC(=O)c1ccc(OC(=O)N(C)c2ccccc2)cc1` ?
Reply: F

Query: Status in this test for COc1ccccc1C(=O)C1CCCN(Cc2cnc(C)s2)C1 (configuration not stated) ?
Reply: F

Query: Status in this test for COC(=O)C(O)(c1ccc(N(C)S(=O)(=O)c2ccccc2)cc1)C(F)(F)F (configuration not stated) ?
Reply: F

Query: Status in this test for `CCOC(=O)C1=C(N)OC2=C(C(=O)CCC2)[C@]12C(=O)N(CC(N)=O)c1ccccc12` ?
Reply: F

Query: Status in this test for `Cc1cc(/C=C2\C(=O)NC(=O)N(c3ccccc3)C2=O)c(C)n1-c1ccc(C(=O)O)c(Cl)c1` ?
Reply: F

Query: Status in this test for `O=c1c2cc(Cl)cc(Cl)c2nc(CN2CCOCC2)n1-c1ccccc1F` ?
Reply: F

Query: Status in this test for `Cc1ccccc1-n1c(O)c(/C=C/C=Nc2ccccc2)c(=O)[nH]c1=O` ?
Reply: T

Query: Status in this test for `CCOC(=O)c1ccc(N=C(c2ccccc2)c2c(O)n(C)c(=O)n(C)c2=O)cc1` ?
Reply: F

Query: Status in this test for COc1ccc(C(=O)C2CCCN(Cc3ccc(C)s3)C2)c(OC)c1 (configuration not stated) ?
Reply: F
